- tested-target: T1, CD123 (protein in solution in the Octet affinity assay) (human, UniProt P26951 19-305, limits assumed)
- T1 construct: also called IL-3Rα; Interleukine-3 Receptor alpha
- T1 sequence (looked up): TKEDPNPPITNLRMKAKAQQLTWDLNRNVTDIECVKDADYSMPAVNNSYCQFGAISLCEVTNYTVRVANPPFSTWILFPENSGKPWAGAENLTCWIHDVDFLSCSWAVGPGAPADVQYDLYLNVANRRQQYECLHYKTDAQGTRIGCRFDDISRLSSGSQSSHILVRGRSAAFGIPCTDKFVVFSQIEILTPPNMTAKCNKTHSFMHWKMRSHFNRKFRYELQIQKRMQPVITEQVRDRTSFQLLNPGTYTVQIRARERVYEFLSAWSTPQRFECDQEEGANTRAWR
- assay-summary: BLI (Octet), antibody on streptavidin biosensor, CD123 in solution
property-label: kon (M⁻¹ s⁻¹)
Numbers only, in M⁻¹ s⁻¹.

Look over these answered cases.
18B4D5 (antibody, V domains shown, Mouse hybridoma monoclonal antibody; The tie uses 'at least 85% identity' wording; also called AB1; antiCD123 B4D5) VH: EVKLQESGPGLVKPSQSLSLTCTVTGYSITSDYTWNWIRQFPGNKLEWMGYISFSGSTSYNPSLKSRLSITRDTSKNQFFLQLNSVTTEDTATYYCARGLDYWGQGTTLTVSS VL: DIVMTQSPAIMSASLGERVTMTCTASSSISSSYLYWYQQKPGSSPKLWIYSTSNLASGVPARFSGSGSGTSYSLTISSMEAEDAATYYCHQLHRSPWTFGGGTKLEIKR; 122000
11A12C6 (antibody, V domains shown, Mouse hybridoma monoclonal antibody; also called AB5) VH: QVQLKESGPGLVAPSQSLSITCTVSGFSLTSYDINWIRQTPGKGLEWLGVIWTGGGTNYNSAFMSRLSISRDNSKSQVFLKMNSLQTDDTAIYYCVRGDGYYWYFDVWGAGTTVTVSS VL: IVMTQSPSSLAVSAGEKVTMSCKSSQSLFSSSARKNYLAWYQQRPGQSPKLLIYWASTRESGVPDRFTGSGSGTDFTLTIGSVQAEDLAVYYCKQSYSLFTFGSGTKLEIKR; 326000

Quick request: kon for each listed item, please.
1. 17F7B2 (antibody, V domains shown, Mouse hybridoma monoclonal antibody; also called AB2) VH: EVQLQQSGTVLARPGASVKMSCKASGYSFTSYWMHWVKQRPGQGLEWIGAFYPGKSDTTYNQKFKGKAKLTAVTSASTAYMELSSLTNEDSAVYYCTKGYRYDWFAYWGQGTLVTVSA VL: DVVMTQTPLSLPVSLGDQASISCRSSQSLVHSNGITYLHWYLQKPGQSPKLLIYKVSNRFSGVPDRFSGSGSGTDFTLKISRVEAEDLGVYFCSQNTHVPFTFGSGTKLEIKR
2. 15E11B7 (antibody, V domains shown, Mouse hybridoma monoclonal antibody; also called AB6) VH: EVQLEQSGPELVKPGDSVKISCKASGYSFTGYFMNWVKQSHGKSLEWIGRINPYNDYTFNNQKFKDKATLTVDKSSSTAHMELLSLTSEDSAVYYCGGGVRGAWFAFWGQGTLVTVSE VL: DIVLTQSTTSLAVSLGQRATISCRASKSVSTSGYNYMHWYQQKPGQPPKLLIYLASNLESGVPARFSGSGSGTDFTLNIHPVEEEDAATYYCQHSADLPYTFGGGTKLEIKR
3. 11B6E6 (antibody, V domains shown, Mouse hybridoma monoclonal antibody; also called AB3) VH: QVKLEESGPGLVAPSQSLSITCTVSGFSLTSYDISWIRQPPGKGLEWLGVIWTGGGTNYNSAFMSRLSISKDNSKSQVFLKMFSLQTDDTAIYYCVRAHGYYFAMDYWGQGTSVTVSS VL: DIVLTQSPSSLAVSAGEKVTMRCKSSQSLLNSSTRKNYLAWYQQKPGQSPKLLIYWASTRESGVPDRFTGSGSGTDFTLTISSVQAEDLAVYYCKQSYNLFTFGSGTKLEIKR

Response:
1: 346000; 2: 332000; 3: 70100

The binder 14G12D7 (antibody, V domains shown, Mouse hybridoma monoclonal antibody; also called AB4) VH: EVQLQESGPGLVKPSQSLSLTCTVTGYSVTSDYAWNWIRQFPGNKLEWMGYIIYSGTTSYNPSLKSRISITRDTSKNQFFLQLNSVTTEDTATYYCTRGVDYWGQGTTLTVSS VL: DIVLTQSPAIMSASPGEKVTMTCRASSSVRSSYLHWYQQKSGASPKLWIYSTSNLASGVPARFSGSGSGTSYSLTISSVEAEDAATYYCLQFSGYPFTFGGGTKLEIKR showed kon equal to 36700
